Recorded conditions: 308.15 K; 101 kPa; Liquid; Vibrating tube method
Endpoint label: mass density (kg/m3)

CO [methanol]
776.9
CCCCn1cc[n+](C)c1.C[C@H](O)C(=O)[O-] [1-butyl-3-methylimidazolium L-lactate]
1104.2
CCO [ethanol]
776.2
CCCCO [butan-1-ol]
798
O [water]
994.1

###

Recorded conditions: 318.15 K; 101 kPa; Liquid; Vibrating tube method
Endpoint label: mass density (kg/m3)

// worked examples, mass density included
CCCCO [butan-1-ol]
790.1
CCO [ethanol]
767

(I) CO [methanol]
(II) CCCCn1cc[n+](C)c1.C[C@H](O)C(=O)[O-] [1-butyl-3-methylimidazolium L-lactate]
Of the two listed items, I and II , which carries the larger mass density figure? Could you answer with the label of the item you picked?
II

###

Recorded conditions: 308.15 K, Wilhelmy plate method
Endpoint label: surface tension liquid-gas (mN/m)

(a) CCO
(b) CCCCn1cc[n+](C)c1.C[C@H](O)C(=O)[O-] [1-butyl-3-methylimidazolium L-lactate]
When the recorded surface tension liquid-gas values are compared, which is smaller: that of a or that of b ? # respond with the chosen item's label
a
(a: 21.13 mN/m, b: 42.37 mN/m)

(P) O
(Q) CCCCO
Between these two entries, P and Q , state which has the higher surface tension liquid-gas. Field: selected label. Fill in the label of the entry you choose.
P

###

Recorded conditions: 298.15 K, Wilhelmy plate method
Endpoint label: surface tension liquid-gas (mN/m)

(1) CO
(2) CCCCn1cc[n+](C)c1.C[C@H](O)C(=O)[O-] [1-butyl-3-methylimidazolium L-lactate]
Given the listed records, identify the one among 1 and 2 with higher surface tension liquid-gas. Identify your selection by its label.
2

###

Recorded conditions: 318.15 K, Wilhelmy plate method
Endpoint label: surface tension liquid-gas (mN/m)

Example results:
CCCCO
22.62
CCO
20.48

(P) CCCCn1cc[n+](C)c1.C[C@H](O)C(=O)[O-] [1-butyl-3-methylimidazolium L-lactate]
(Q) CO
(R) O
Please give the order of these molecules when sorted by surface tension liquid-gas, largest value leading. In your reply, arrange the labels in the requested order.
R, P, Q
(R: 68.89 mN/m, P: 42.01 mN/m, Q: 20.46 mN/m)

###

Recorded conditions: 298.15 K; 101 kPa; Liquid; Vibrating tube method
Endpoint label: mass density (kg/m3)

CO
786.4
CCO
784.7
CCCCO
805.7
CCCCn1cc[n+](C)c1.C[C@H](O)C(=O)[O-] [1-butyl-3-methylimidazolium L-lactate]
1111.2

###

Recorded conditions: 298.15 K, Wilhelmy plate method
Endpoint label: surface tension liquid-gas (mN/m)

CCCCO
23.89

(A) CCO
(B) O
Lab note: check whether A or B has the lower measured surface tension liquid-gas. Please indicate the selected item by its label.
A

Data origin, for the record: the NIST ThermoML archive (doi:10.1016/j.jct.2013.04.015)
